target entity: Alkaline phosphatase, tissue-nonspecific isozyme (Rattus norvegicus)
Sequence (whole entry): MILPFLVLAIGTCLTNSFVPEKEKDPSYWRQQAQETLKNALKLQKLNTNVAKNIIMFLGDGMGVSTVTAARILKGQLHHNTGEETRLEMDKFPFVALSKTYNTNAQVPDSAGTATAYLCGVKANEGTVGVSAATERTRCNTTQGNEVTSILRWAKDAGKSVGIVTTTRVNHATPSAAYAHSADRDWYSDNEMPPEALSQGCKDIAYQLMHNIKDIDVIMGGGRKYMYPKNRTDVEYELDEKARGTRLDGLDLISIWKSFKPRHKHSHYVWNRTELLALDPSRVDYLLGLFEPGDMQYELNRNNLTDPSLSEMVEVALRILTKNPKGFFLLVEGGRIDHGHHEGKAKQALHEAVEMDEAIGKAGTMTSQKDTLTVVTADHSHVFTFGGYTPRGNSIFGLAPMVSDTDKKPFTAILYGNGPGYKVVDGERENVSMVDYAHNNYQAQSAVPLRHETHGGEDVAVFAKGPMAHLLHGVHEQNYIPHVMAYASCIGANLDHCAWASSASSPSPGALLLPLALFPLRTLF
test name: Effect on alkaline phosphatase activity compared to control in culture of rat bone marrow stromal cells, 10E-5 M concentration
Type: tissue-based
recorded metric: ALP activity

For orientation, consider the following solved cases.
| structure notation | ALP activity |
| --- | --- |
| CCOP(=O)(OCC)c1ccc(NC(=O)[C@H]2Cc3cc(C)c(C)cc3C(=O)CS2)cc1 | 2.2 |
| CCOP(=O)(Cc1ccc(NC(=O)[C@@H]2SCC(=O)c3cc(C)c(C)cc32)cc1)OCC | 1.5 |
| CCOP(=O)(OCC)c1ccc(NC(=O)[C@@H]2SCC(=O)c3cc(C)c(C)cc32)cc1 | 1.5 |
| CCOP(=O)(Cc1ccc(NC(=O)[C@H]2Cc3ccc(Cl)cc3C(=O)CS2)cc1)OCC | 1.1 |
| CCOP(=O)(CCNC(=O)[C@H]1Cc2cc3c(cc2C(=O)[C@H](C)S1)OCO3)OCC | 1.1 |
| CCOP(=O)(Cc1ccc(NC(=O)[C@@H]2SCC(=O)c3cc4c(cc32)OCO4)cc1)OCC | 1.2 |

1. Cc1ccc(NC(=O)[C@@H]2SCC(=O)c3cc(C4CCCCC4)ccc32)cc1
2. CCOP(=O)(Cc1ccc(NC(=O)[C@H]2Cc3cc4c(cc3C(=O)[C@H](C)S2)OCO4)cc1)OCC
Asked: Between 1 and 2 , which one has the lower reported ALP activity value? Use the label to indicate which entry you chose.
Given back: 1
(1: 1.7, 2: 5.5)

----------
target entity: Alkaline phosphatase, tissue-nonspecific isozyme (Rattus norvegicus)
test name: Effect on alkaline phosphatase activity compared to control in culture of rat bone marrow stromal cells, 10E-5 M concentration
Assay type: tissue-based
recorded metric: ALP activity

| structure notation | target entity | ALP activity |
| --- | --- | --- |
| CCOP(=O)(CCc1ccc(NC(=O)[C@H]2Cc3cc4c(cc3C(=O)[C@H](C)S2)OCO4)cc1)OCC | Alkaline phosphatase, tissue-nonspecific isozyme (Rattus norvegicus) | 1.9 |
| CCOc1ccc(OCC)c(NC(=O)[C@@H]2SCC(=O)c3cc(C4CCCCC4)ccc32)c1 | Alkaline phosphatase, tissue-nonspecific isozyme (Rattus norvegicus) | 2.3 |

1. CCOP(=O)(OCC)c1ccc(NC(=O)[C@H]2Cc3cc(OC)c(OC)cc3C(=O)CS2)cc1
2. CCOP(=O)(Cc1cccc(NC(=O)[C@H]2Cc3cc4c(cc3C(=O)[C@H](C)S2)OCO4)c1)OCC
Asked: Short answer wanted: higher ALP activity, 1 or 2 ? Use the label to indicate which entry you chose.
Given back: 1

P. CCOP(=O)(OCC)c1ccc(NC(=O)[C@@H]2SCC(=O)c3cc4c(cc32)CCC4)cc1
Q. CC(C)Oc1ccc2c(=O)c(-c3ccccc3)coc2c1
R. CCOP(=O)(Cc1ccc(NC(=O)[C@@H]2SCC(=O)c3cc(OC)c(OC)cc32)cc1)OCC
Asked: With regard to ALP activity, arrange the entries in ascending order, please. Rank the items, then write their labels in that order.
Given back: P, Q, R
(P: 1.1, Q: 1.6, R: 2.5)
